assay: Acute toxicity, single intraperitoneal injection; settings: mouse, in vivo, ip, ddY mice, male
Numbered stars: 1 amine (or outer) side, 2 acyl side, 3 side chain; on linkers, the order of the positions; unused ones are H or OH. Bridge positions count the residues as written; N and C are the ends. Square brackets hold non-standard residues; d marks the D form. Peptide text beside a SMILES is read from it. * marks the point of attachment. Cinnamoyl(2-(1Z-pentenyl)) = CCC/C=C\c1ccccc1/C=C/C(=O)*; X1 = CN(/C(=C/c1ccc(O)cc1)C(=O)[*:2])[*:1]; aThr = C[C@H](O)[C@H](N)C(=O)O
reported-metric: LD50

## Task // returns reported LD50 for input CCC/C=C\c1ccccc1/C=C/C(=O)N[C@@H]1C(=O)N(C)/C(=C/c2ccc(O)cc2)C(=O)N[C@@H](CC(C)C)C(=O)N[C@H](Cc2ccccc2)C(=O)N[C@@H]([C@H](C)O)C(=O)N[C@@H](CC(N)=O)C(=O)N[C@@H](CO)C(=O)O[C@@H]1C [WS-9326A] ({Cinnamoyl(2-(1Z-pentenyl))}-T[X1]L[dF][aThr]NS; ester 1-C; N-terminus assumed)
## Result 250 to 500 mg/kg
